Value source: the supplement of paper PMC10126150

Reported switch fluorescence ratio values follow for various sequences
tested on: ATP; test: switch fluorescence ratio, 500 uM ATP over buffer (Cy3 cluster intensity, sum of 5 cycles each) (fold (ratio)); higher = stronger signal-on switching upon ATP binding; sequences stand for … in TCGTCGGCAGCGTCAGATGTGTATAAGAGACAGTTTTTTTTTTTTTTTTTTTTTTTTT…TC; details: aptamer strand: ATP DNA aptamer (quencher-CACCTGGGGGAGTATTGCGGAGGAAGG + anchor), 100 nM annealed; ATP concentration: 500 uM;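 note: ATP exposure 15 min at 22 °C before imaging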
Please state the value as a number alone, without comment.

Previously resolved entries follow.
sequence | switch fluorescence ratio
AGGTATACCT | 1.01
AGGCGGGGCT | 0.973
TTTTCCCTAT | 1.41

Please turn your attention to the following entry.
Would you kindly share the measured switch fluorescence ratio for GGTAGTAGAT ?
1.01
